Kindly state growth inhibition for each of the entries shown.
assay: NCI Yeast Anticancer Drug Screen. Data for the mlh1 strain (AID 171);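 further: 0% = growth of vehicle-treated control cultures of the same strain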; conditions: S. cerevisiae mlh1 strain growth inhibition; at 11.0 µM; hits give high values
Compounds without any hit were thinned out: in the full panel of roughly 79,000, 15% have a hit.
Give bare numbers, in %.

Here is how some compounds turned out for growth inhibition.
| Compound | growth inhibition / % |
| --- | --- |
| CN(CCN(C)Cc1ccccc1)Cc1ccccc1 | 12 |
| CC1OC(O[C@H]2/C=C/C=C/C=C/C=C/C=C/C=C/C=C/[C@H](C)[C@@H](O)[C@@H](C)[C@H](C)OC(=O)C[C@H](O)C[C@H](O)CC[C@@H](O)[C@H](O)C[C@H](O)C[C@]3(O)C[C@H](O)[C@@H](C(=O)O)[C@H](C2)O3)C(O)C(N)C1O (some centres not stated) | 98 |
| CC(/C=C/c1ccccc1)=N\NC(N)=S | 20 |

Would you be so kind as to report growth inhibition for each listed record?
1. CNCCCNc1c2ccccc2nc2cccc([N+](=O)[O-])c12
2. CCC1(OC(=O)CN2CCN(CCO)CC2)C(=O)OCc2c1cc1n(c2=O)Cc2cc3ccccc3nc2-1 (configuration not stated)
3. CC[N+]1(C)CCC(O)(c2ccc(OC)cc2)C(C(=O)c2ccc(OC)cc2)C1 (configuration not stated)
4. O=C1OC(OC/C(Br)=C(\Br)COC2OC(=O)C(Cl)=C2Cl)C(Cl)=C1Cl (configuration not stated)
5. CC(O)=NC(Cc1ccc2ccccc2c1)C(O)=NC(Cc1ccc(Cl)cc1)C(O)=NC(Cc1c[nH]c2ccccc12)C(O)=NC(CO)C(O)=NC(Cc1ccc(O)cc1)C(O)=NC(CCCN=C(N)N)C(O)=NC(CC(C)C)C(O)=NC(CCCN=C(N)N)C(=O)N1CCCC1C(O)=NC(C)C(=N)O (configuration not stated)
6. COc1ccc(C(=O)Oc2ccccc2Br)cc1
7. Nc1nc2ccc(NCc3ccc(C(=O)NC(CCC(=O)O)C(=O)O)cc3)cc2c(=O)[nH]1 (configuration not stated)
8. Cc1ccc2nc(-c3cccc([N+](=O)[O-])c3)oc(=O)c2c1

Resp:
1: 72; 2: -12; 3: -16; 4: 2; 5: -3; 6: -2; 7: 0; 8: -17

Req: For the compound `COc1ccc(/C=C2\NC(=S)N(/C=C3\C(=O)Oc4ccccc4C3=O)C2=O)cc1` , give its measured growth inhibition value.
Resp: 1

###

assay: NCI Yeast Anticancer Drug Screen. Data for the bub3 strain (AID 167); settings: S. cerevisiae bub3 mutant strain, at 11.0 µM
Compounds without any hit were thinned out: in the full panel of roughly 79,000, 15% have a hit. The source made the active and inactive calls. No stated cut-off is given here; in the data, active means growth inhibition above about 70%; inactive means the rest.
Output constraint: value belongs to True for active, False for inactive

Worked set:
| Compound | Class Assignment |
| --- | --- |
| CSc1nnc(SC)nn1 | False |
| COc1ccc(C(=O)c2ccccc2C(=O)c2ccccc2OC)cc1 | False |
| CN(C)CCOC1(Cc2ccc(F)cc2)CCC(C(C)(C)C)CC1 (stereo unspecified) | False |
| Cc1cc(S(=O)(=O)Nc2nnc3cnc4ccccc4n23)c(S)cc1Cl | False |

Continue with the compound presented below.
Req: Record request — test call for `Cc1cc(NCCCCCCCCNc2cc(C)nc3cc(N)ccc23)c2ccc(N)cc2n1`
Resp: True

###

test: NCI Yeast Anticancer Drug Screen. Data for the mlh1 strain (AID 171);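 further: 0% = growth of vehicle-treated control cultures of the same strain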; details: S. cerevisiae mlh1 strain growth inhibition; at 33.0 µM; hits give high values
This is part of a sample that, as a whole, favours compounds with a hit. Of some 79,000 tested, about 15% had one in any assay.
Measured Quantity: growth inhibition (%)
Numbers only, in %.

Some solved entries appear below for comparison.
| Compound | growth inhibition, % |
| --- | --- |
| CC[n+]1oc(C(=O)c2ccc(Cl)cc2)c(-c2ccccc2)c1-c1ccccc1.[Cl][Fe]([Cl])([Cl])[Cl] | 31 |
| Cc1cc2c(cc1C)[n+]([O-])c(-c1nc3ccccc3s1)c(N)[n+]2[O-] | 20 |
| Cc1ccc(NC(c2ccccc2)c2ccc3cccnc3c2O)cc1 (stereo unspecified) | -22 |
| CN(C)CCNC(=O)c1cccc2cc([N+](=O)[O-])ccc12 | 69 |
| COc1cccc(/C=N/C(/N=C/c2cccc(OC)c2O)c2cccc(OC)c2O)c1O | 33 |
| Cc1nc2ccc(N=NN(C)C)cc2[nH]1 | 99 |
| COC(=O)C1=C(C(=O)OC)C(C(=O)OC)C(C(=O)OC)C(C(=O)OC)(C(=O)OC)C(C(=O)OC)=C1C(=O)OC (stereo unspecified) | -1 |
| N#CC1=C(N)N(/N=C/c2ccccc2)C(c2ccccc2)C1(C#N)C#N (stereo unspecified) | 95 |

Provide reported growth inhibition for each item, in the same order as listed.
1. CC1=NOC(=O)/C1=C/c1ccc2c(c1)OCO2
2. COc1cc(/C=C2\CCC/C(=C\c3ccc(O)c(OC)c3)C2=O)ccc1O
3. S=c1[nH]c2cc3ccccc3cc2[nH]1
4. C[C@]12CC[C@H](O)CC1=CC[C@@H]1C2CC[C@]2(C)C(=O)NC(=O)CC12 (stereo partly specified)

Resp:
1: 20; 2: -1; 3: 14; 4: 94

For each of the compounds below, state growth inhibition.
1. CCCCOP(=O)(CCCP(=O)(OCCCC)OCCCC)OCCCC
2. C#CCN(Cc1ccc2nc(N)[nH]c(=O)c2c1)c1ccc(C(=O)NC(CCC(=O)O)C(=O)O)cc1 (stereo unspecified)

Resp:
1. 8
2. 41

Provide growth inhibition values for the following items, in order.
1. Cc1cccc(C(C)(C)C)c1NC(=O)C(C#N)C1=C(Cl)C(=O)c2ccccc2C1=O (stereo unspecified)
2. Cc1cc(C)nc(NS(=O)(=O)c2ccc(Nc3c4ccccc4nc4c(C(=O)NCCO)cccc34)cc2)n1

Resp:
[99, -1]

###

assay: NCI Yeast Anticancer Drug Screen. Data for the sgs1 mgt1 strain (AID 161);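 further: 0% = growth of cultures given vehicle only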; details: S. cerevisiae sgs1 mgt1 strain, at 50.0 µM (retest, dose inferred, filed as 5.0), hits give high values
The panel holds about 79,000 compounds, 15% with a hit somewhere; the sample as a whole holds those more often.
Could you please report measured growth inhibition for the items listed next?
Numbers only, in %.

Record excerpt, results attached:
| Compound | Measurement Units | growth inhibition |
| --- | --- | --- |
| CC(C)OC(=O)Nc1ccc2nc(-c3cscn3)[nH]c2c1 | % | 39 |
| O=[N+]([O-])c1cc(F)c(F)cc1Sc1cc(F)c(F)cc1[N+](=O)[O-] | % | 98 |
| Cc1cc(O)c(C(C)C)cc1C1(c2cc(C(C)C)c(O)cc2C)OC(=O)c2ccccc21 | % | 98 |
| N/C(=N/N=C/c1cc(Br)cc(Br)c1O)NO | % | 99 |
| Cc1cccc(C(C)(C)C)c1NC(=O)C(C#N)C1=C(Cl)C(=O)c2ccccc2C1=O (centres undefined) | % | 98 |
| CCCC/C([O-])=C1/C(=O)N(c2ccccc2)N=C1C.CCCC/C([O-])=C1/C(=O)N(c2ccccc2)N=C1C.[Cu+2] | % | 42 |

// each compound listed below needs its growth inhibition
1. CSc1nnc(SC)nn1
2. CC1=C(C(=O)NCc2ccccc2)C(c2ccccc2)C(C(=O)NCc2ccccc2)=C(C)N1
3. C=C1CCC(O)C/C1=C/C=C1\CCCC2(C)C1CCC2C(C)CCCC(C)C (centres undefined)

Resp:
1. 99
2. 82
3. 57

###

Answer each item with its documented growth inhibition.
Assay: NCI Yeast Anticancer Drug Screen. Data for the cln2 rad14 strain (AID 165);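 further: 0% = growth equal to vehicle treated cultures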
Conditions: S. cerevisiae cln2 rad14 strain, at 50.0 µM (retest, dose inferred, filed as 5.0), hits give high values
Procedure: Growth inhibition of yeast strains with defined genetic alterations is measured as a screen for potential anti-cancer activity. Selected strains with alterations in DNA damage repair or cell cycle control were exposed to compounds and growth inhibition was measured relative to vehicle treated controls. The strain used in this assay is cln2 rad14
This is part of a sample that, as a whole, favours compounds with a hit. Of some 79,000 tested, about 15% had one in any assay.
Answers are plain numbers, in %.

| Compound Structure String | Number |
| --- | --- |
| Cc1nc2ccccc2nc1NNc1ccccc1 | 48 |
| Oc1[nH]c2ccccc2c1N=NC(=S)N1CCCCC1 | 99 |
| O=C1C(=O)c2ccccc2C(O)=C1C(C1=C(O)c2ccccc2C(=O)C1=O)c1ccc(Cl)cc1 | 3 |

Consider the additional compound presented here.
Req: Identify measured growth inhibition associated with `C(=Nc1ccc(-c2cc(-c3ccccc3)nc3ccc4ccccc4c23)cc1)c1ccccc1`
Resp: 75

###

test: NCI Yeast Anticancer Drug Screen. Data for the mgt1 strain (AID 153); conditions: S. cerevisiae mgt1 mutant growth inhibition; at 11.0 µM; hits give high values
About 79,000 compounds went through this panel and 15% of them were active in at least one assay; those are over-represented in the sample as a whole. Activity calls are given as the source filed them. Rule as the data show it: active = growth inhibition above about 70%; inactive = the rest.
Measured Quantity: growth inhibition

| Compound Structure String | growth inhibition |
| --- | --- |
| CCOC(=O)c1[nH]cc(C)c1-c1cccn1-c1ccc(Cl)cc1[N+](=O)[O-] | 20% (inactive) |
| COc1ccc([N+](=O)[O-])c2c(NCCCN(C)C)c3ccccc3nc12 | 6% (inactive) |

Req: Please give the documented growth inhibition of `O=C1CC(=O)c2ccccc21`
Resp: 1% (inactive)
